Biological target: recombinant human PKM2 (Homo sapiens (Human))
Assay: Human PKM2 activation assay (Kinase-Glo Plus luminescence)
Type: biochemical
Details: recombinant His-tagged hPKM2; activation, 4-parameter logistic fit
readoutName: EC50 (nM)
Only the number, expressed in nM, is required.

### Prompt Given the entry O=c1c2ccc(S(=O)(=O)c3cn[nH]c3)cc2cnn1Cc1ccn(C2CC2)n1 [Example 1] , report its measured EC50.
### Response 64.5

----------
Biological target: recombinant human PKM2 (Homo sapiens (Human), UniProt P14618)
Sequence (P14618 whole entry): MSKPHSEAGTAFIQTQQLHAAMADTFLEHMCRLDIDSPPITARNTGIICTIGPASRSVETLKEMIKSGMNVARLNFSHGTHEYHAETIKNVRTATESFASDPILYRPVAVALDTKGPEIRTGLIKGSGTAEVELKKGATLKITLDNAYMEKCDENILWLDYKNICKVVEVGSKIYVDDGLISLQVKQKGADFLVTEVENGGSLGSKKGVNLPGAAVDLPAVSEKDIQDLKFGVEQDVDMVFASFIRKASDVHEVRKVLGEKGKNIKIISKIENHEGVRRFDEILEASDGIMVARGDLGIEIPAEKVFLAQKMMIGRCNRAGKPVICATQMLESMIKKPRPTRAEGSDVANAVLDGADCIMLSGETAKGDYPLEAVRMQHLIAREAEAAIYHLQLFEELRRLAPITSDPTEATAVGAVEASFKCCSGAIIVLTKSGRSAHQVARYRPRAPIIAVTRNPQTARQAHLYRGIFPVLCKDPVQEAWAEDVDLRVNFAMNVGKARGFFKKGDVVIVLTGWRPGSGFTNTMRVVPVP
Assay: Human PKM2 activation assay (Kinase-Glo Plus luminescence)
Assay type: biochemical
Settings: data from repeated experiments; read-out: hPKM2 EC50
readoutName: pEC50
In plain terms, pEC50 is the concentration in mol/L turned into minus its base-10 logarithm.

### Prompt Form entry - test system: recombinant human PKM2 (Homo sapiens (Human), UniProt P14618); read-out: pEC50; molecule: O=c1c2ccc(S(=O)(=O)c3cn[nH]c3)cc2cnn1Cc1ccn(C2CC2)n1 [Example 1]
### Response 6.97
